test system: HT29 colon; assay: NCI tumour cell line growth inhibition, 48 h
Assay Readout: GI50

In: Please give the measured GI50 for this compound: `O=C(/C=C/c1cc(O)ccc1O)c1ccc(Cl)cc1`
Out: 54400 nM

In: Please give the measured GI50 for this compound: `COC(=O)C[C@@H]1CC=CC(=O)/C1=C(O)/C=C/c1ccccc1`
Out: 268 nM

In: Please give the measured GI50 for this compound: `COC(=O)[C@]12CC[C@@H](C)[C@H](C)[C@@H]1C1=CC[C@@H]3[C@@]4(C)C(C=O)=C[C@@](C)(COC(=O)c5ccco5)C4=CC[C@@]3(C)[C@]1(C)CC2`
Out: 2980 nM

In: Please give the measured GI50 for this compound: O=CCC(O)C(O)C(O)CO (stereo not drawn)
Out: > 100000 nM

In: Please give the measured GI50 for this compound: `COc1ccc2c(ccc3oc([N+](=O)[O-])cc32)c1`
Out: 202 nM

In: Please give the measured GI50 for this compound: CC(C)CCCC(C)[C@H]1CCC2C3CC=C4C[C@@H](OC(=O)CC(CC(=O)[O-])C(=O)[O-])CC[C@]4(C)C3CC[C@@]21C.N.N.[Pt+4] (stereo partly drawn)
Out: > 100000 nM

In: Please give the measured GI50 for this compound: `O=C1Nc2cc(-c3ccc(O)cc3)ccc2/C1=C/c1ccc[nH]1`
Out: 979 nM

In: Please give the measured GI50 for this compound: `CC1=CC[C@@H]2C(=O)C=CC=C[C@H]12.[C-]#[O+].[C-]#[O+].[C-]#[O+].[Fe]`
Out: > 100000 nM

In: Please give the measured GI50 for this compound: Cc1nc2sc(C(=O)Nc3cccc(Cl)c3C)c(N)c2cc1C(O)c1ccccc1 (stereo not drawn)
Out: 35.5 nM

In: Please give the measured GI50 for this compound: `CC(=O)OCCC/C(=C/c1cc2ccccc2c2ccccc12)[N+](=O)[O-]`
Out: 1970 nM

In: Please give the measured GI50 for this compound: O=C(Oc1c(Cl)c(Cl)c(Cl)c(Cl)c1Cl)C1CCCN1C(=O)OCc1ccccc1 (stereo not drawn)
Out: 3710 nM

In: Please give the measured GI50 for this compound: `COc1ccccc1CNC(=O)/C=C/c1ccc(O)c(O)c1`
Out: 50500 nM

In: Please give the measured GI50 for this compound: `CS(=O)(=O)Nc1cccc(-c2ccc3ncnc(Nc4cncc(Cl)c4)c3c2)c1`
Out: 1850 nM

In: Please give the measured GI50 for this compound: CCOC(=O)CC1C(CNC(=O)NC)OC(n2cnc3c(NC(=O)Nc4ccccc4)ncnc32)C1O[Si](C)(C)C(C)(C)C (stereo not drawn)
Out: 4200 nM

In: Please give the measured GI50 for this compound: `COc1ccc(-c2cncn2-c2ccc(-c3nc4cc(OC)c(OC)c(OC)c4s3)cc2)cc1N`
Out: 3870 nM

In: Please give the measured GI50 for this compound: `Nc1nc(N)c2cc(S(=O)(=O)c3ccccc3)ccc2n1`
Out: 634 nM

In: Please give the measured GI50 for this compound: COc1ccccc1N1CCN(CC(O)Cn2c(=O)c3c(OC)nc(C)cc3c(=O)n2-c2ccccc2)CC1 (stereo not drawn)
Out: > 100000 nM

In: Please give the measured GI50 for this compound: `COc1ncc(-c2ccc3ncnc(Nc4cccc(Cl)c4)c3c2)cc1NS(C)(=O)=O`
Out: 1070 nM
